Test system: A498 renal
test protocol: NCI tumour cell line growth inhibition, 48 h
measurement type: TGI (µM)
Record the value in µM, omitting the unit from your answer.

- CC(C)(C)CC(C)(C)c1cc(O)c(O)c(CN2CCCCC2)c1: 27.3

Now turn to the next compound.
Read the entry `C/C(=N\Nc1nc2cc(C(F)(F)F)ccc2s1)c1ccccn1` and write its reported TGI.
7.61

* * *

Reported GI50 values for a set of compounds
Tested on: NCI-H226 lung
test protocol: NCI tumour cell line growth inhibition, 48 h

Past entries and their recorded results:
- O=C(c1ccccc1)c1c(NCC(O)CN2CCOCC2)n(Cc2ccccc2)c(=O)n(Cc2ccccc2)c1=O (centres undefined): 31.6 µM
- CC(=O)[O-].[Mn+3].[O-]c1ccccc1C=NCCNCCN=Cc1ccccc1[O-]: > 100 µM
- Cc1nc2c(n1C)C(=O)c1ccccc1C2=O: > 100 µM

Give GI50 for `C1CC[N-]CC1.CC(=N\O)/C(C)=N/O.CC(=N\O)/C(C)=N/O.OC1[CH-]CCCC1.[Co+2]`
> 100 µM

Note down GI50 recorded for `O=C(NCCc1ccccn1)OCc1nc2nc(Cl)nc(N3CCOCC3)c2[nH]1`
1.61 µM

Kindly indicate its recorded GI50. Item: `C=CC(=O)Nc1cc(N2CCN(CC)CC2)ccc1Nc1cc(N(C)C(=O)Nc2c(Cl)c(OC)cc(OC)c2Cl)ncn1`
14.2 µM

Tell me measured GI50 for `O=c1cc(N/N=C/c2ccc(F)cc2)c2cc(Cl)ccc2[nH]1` please.
14.6 µM

Data provenance is PubChem BioAssay (NCI).
